Each recorded value in this set is attributed to patent US12612420B2.

Listed here: items and their measured IC50.
Target: recombinant human arginase 2 (hARG2) (Homo sapiens, UniProt P78540)
Sequence (P78540 23-354): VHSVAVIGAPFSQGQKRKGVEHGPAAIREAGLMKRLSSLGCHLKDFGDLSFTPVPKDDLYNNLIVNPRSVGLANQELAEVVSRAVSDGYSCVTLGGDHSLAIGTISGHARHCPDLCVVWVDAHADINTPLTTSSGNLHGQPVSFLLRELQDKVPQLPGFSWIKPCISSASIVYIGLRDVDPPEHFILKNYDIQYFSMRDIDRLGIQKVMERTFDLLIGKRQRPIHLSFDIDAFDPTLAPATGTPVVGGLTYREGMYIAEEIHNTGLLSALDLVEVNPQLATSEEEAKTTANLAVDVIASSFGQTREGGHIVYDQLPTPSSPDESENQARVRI
Test: Human arginase inhibition assay (colorimetric urea detection), arginase 2
Conditions: IC50 class; hydrochloride salts; 1 h at 37° C., pH 7.4, 20 mM L-arginine, 200 μM MnCl2; read-out: Activity Class (ARG II)
Method: Human Arginase Inhibition Assay The inhibitory activities of the compounds of the invention were assessed using recombinant human arginases 1 and 2. […] The absorbance for each well was measured at 515 nm and the enzyme inhibition was calculated. […] The absorbance at the absence of arginase (background) was subtracted from all the values. The normalized values were analyzed using GraphPad Prism 7.0 software by plotting inhibition curves and determining the IC50 values. […]
Counter-ions that a name gives are not always drawn.

Sample records with IC50:
> print(dat)
                                   molecule  recorded.value
1  N[C@@H](CC(=O)O)C(=O)NC[C@@H]1CC[C@@H](CCB(O)O)C[C@]1(N)C(=O)O [Example 29, dihydrochloride]        > 0.3 µM
2  CC(C)(O)[C@H](N)C(=O)NC[C@@H]1CC[C@@H](CCB(O)O)C[C@]1(N)C(=O)O [Example 16, dihydrochloride]        > 0.3 µM
3  N[C@@H](Cc1ccccc1)C(=O)NC[C@@H]1CC[C@@H](CCB(O)O)C[C@]1(N)C(=O)O [Example 3, dihydrochloride]        > 0.3 µM
4  NCC(=O)NC[C@@H]1CC[C@@H](CCB(O)O)C[C@]1(N)C(=O)O [Example 4, dihydrochloride]        > 0.3 µM
5  N[C@@H](CO)C(=O)NC[C@@H]1CC[C@@H](CCB(O)O)C[C@]1(N)C(=O)O [Example 7, dihydrochloride]        > 0.3 µM

Challenge: Which value of IC50 has been reported for CC(C)[C@@](C)(N)C(=O)NC[C@@H]1CC[C@@H](CCB(O)O)C[C@]1(N)C(=O)O [Example 21, dihydrochloride] in the records?
Response given: > 0.3 µM

Challenge: Which value of IC50 has been reported for C[C@H](N)C(=O)NC[C@@H]1CC[C@@H](CCB(O)O)C[C@]1(N)C(=O)O [Example 1, dihydrochloride] in the records?
Response given: > 0.3 µM
